experiment: ATP-based viability of Huh7 replicon cells – cell-based, CellTiter-Glo luminescence, basal, 48 h, cytotoxicity control for HCV replication inhibitor project, primary screen (AID 1143); conditions: higher = more signal, called active from +8 up or from −8 down;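 further: Huh7 hepatoma cells carrying a hepatitis C replication reporter with no stimulus; test concentration not given here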
Activity calls are given as the source filed them.
Entries and their measured z-score follow.

compound: C=CC[C@@]1(C(N)=O)N=C(c2ccc(OCCCO)cc2)O[C@@H]1c1ccccc1N=[N+]=[N-]
z-score: -0.656 (inactive)
//
compound: C=C[C@H](C)[C@H](OC(=O)Nc1ccc(OC)cc1)c1ccc(O)c2ccccc12
z-score: -3.55 (inactive)
//
compound: COC(=O)c1nc2oc1CC[C@@H](CO)NC(=O)N(C)Cc1cn(nn1)C[C@H](Cc1ccccc1)NC2=O
z-score: -0.0962 (inactive)
//
compound: O=C1O[C@@H](c2ccccc2)[C@@H](c2ccccc2)N2[C@@H](c3ccc(O)cc3)[C@]3(C(=O)Nc4ccccc43)[C@@H](C(=O)NC[C@H](O)c3ccccc3)[C@H]12
z-score: -2.34 (inactive)
//
compound: O=C(NCc1ccccc1)[C@@H]1c2ccccc2C(=O)N(Cc2cc(F)cc(C(F)(F)F)c2)[C@H]1c1ccc(CO)cc1
z-score: -1.26 (inactive)
//
compound: NC(=O)NCC#Cc1ccc2c(c1)[C@]1(C(=O)N2)[C@H](c2ccccc2OCCO)N2[C@H](c3ccccc3)[C@H](c3ccccc3)OC(=O)[C@H]2[C@@H]1C(=O)N1CCCCCCC1
z-score: -1.57 (inactive)
//
compound: C=CCN1Cc2ccccc2C[C@]2(N=C(c3ccc(OCCCO)cc3)O[C@@H]2c2ccccc2)C1=O
z-score: -4.28 (inactive)
//
compound: Cn1c2c(c3ccccc31)C(=O)C1NC2C=CC1(C)C(=O)OCc1ccccc1 (stereo not given)
z-score: -0.171 (inactive)
//
compound: CC1(C)C(=O)C(c2ccccc2)=C2CN3C(=O)N(CCc4ccccc4)C(=O)C3(Cc3ccccc3)C=C21 (stereo not given)
z-score: -1.13 (inactive)
//
compound: CCCC[C@@H]1C[C@H]1[C@@H](NC(=O)c1ccco1)c1ccccc1
z-score: -2.87 (inactive)

* * *

target: Dihydroorotate dehydrogenase (quinone), mitochondrial (Plasmodium falciparum (isolate 3D7)); assay: inhibition of P. falciparum DHODH – biochemical, C-terminal His tag, absorbance 600 nm, primary screen (AID 1175); conditions: PfDHODH enzyme, DCIP absorbance 600 nm; higher = more signal, called active from +8 up or from −8 down;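 further: recombinant parasite enzyme with a five histidine tag at its C terminus; test concentration not given here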

smiles.entry: COCCOC(=O)N1C(=O)[C@@]2(c3cc(C#CCCO)ccc31)[C@H](c1ccc(O)cc1)N1[C@H](c3ccccc3)[C@H](c3ccccc3)OC(=O)[C@H]1[C@@H]2C(=O)N1CCCCCCC1
composite z-score: 0.232
--
smiles.entry: COC(=O)C(CC#Cc1ccc2c(c1)[C@]1(C(=O)N2)[C@H](C(=O)N2CCCCCCC2)[C@H]2C(=O)O[C@H](c3ccccc3)[C@H](c3ccccc3)N2[C@@H]1c1ccccc1OCCO)C(=O)OC
composite z-score: -4.91
--
smiles.entry: COc1ccccc1CN1C(=O)c2ccccc2[C@](Cc2ccccc2I)(C(=O)NC2CC2)[C@@H]1c1ccc(CO)cc1
composite z-score: 0.629
--
smiles.entry: C=CCNC(=O)[C@@H]1[C@H]2C(=O)O[C@H](c3ccccc3)[C@H](c3ccccc3)N2[C@H](c2ccccc2OCCO)[C@@]12C(=O)N(C(=O)OCCOC)c1ccc(C#CCC(C(=O)OC)C(=O)OC)cc12
composite z-score: -2.24
--
smiles.entry: C=C(CCCC)C(=O)CC[C@H](OC(C)=O)c1ccc(CO)o1
composite z-score: -1.66
--
smiles.entry: CC(C)C[C@@H]1NC(=O)[C@@H]2C[C@H](C(=O)NCCCCN(C)C)[C@H](c3ccc(O)cc3)N2C1=O
composite z-score: -0.0312

* * *

assay: JC-1 mitochondrial signal, unstimulated myeloma cells – cell-based, JC-1 fluorescence, RPMI8226, 24 h, 100 nL compound, profiling panel (AID 1169); conditions: JC-1 mitochondrial potential fluorescence, higher = more signal; further: test concentration not given here
value.type: z-score

compound: CC(C)C(CO)N1C(=O)[C@@H]2[C@H]3C(=O)OCC=C[C@H]3OC23C=CCN(c2ccc4ccccc4c2)C(=O)[C@@H]13 (some centres undefined)
measured: -0.651
--
compound: O=C1C2C=CC(C(O)c3ccc(B(O)O)cc3)N(Nc3ccc([N+](=O)[O-])cc3)C2C(=O)N1c1ccccc1 (centres undefined)
measured: -0.213
--
compound: O=C1O[C@H](c2ccccc2)[C@H](c2ccccc2)N2[C@H]1[C@@H](C(=O)NC[C@H](O)c1ccccc1)[C@]1(C(=O)Nc3ccc(C#CC4(O)CCCCCC4)cc31)[C@H]2c1ccccc1OCCO
measured: -0.99
--
compound: O=C1C2C=CC(C(O)c3ccccn3)N(Nc3ccccc3F)C2C(=O)N1c1ccccc1 (centres undefined)
measured: -0.196

* * *

test: probe aNOTCH3 binding on compound microarray – biochemical, small-molecule microarray, 635/667 nm fluorescence, primary screen (AID 1120); conditions: higher = more signal;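 further: probe is a biotin-tagged antibody raised against NOTCH3 rather than NOTCH3 protein; score merges spot fluorescence near 667 nm with spot signal to noise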
value.type: composite z-score

compound: COCCCNC(=O)[C@@]1(Sc2ccc(C)cc2)CC(=O)N(Cc2ccccc2)[C@@H]1c1ccc(CO)cc1
value.type: composite z-score
measured: -0.689
//
compound: COCCOC(=O)N1C(=O)[C@@]2(c3ccccc31)[C@H](c1ccc(O)cc1)N1[C@H](c3ccccc3)[C@H](c3ccccc3)OC(=O)[C@H]1[C@@H]2C(N)=O
value.type: composite z-score
measured: -0.27
//
compound: C[C@]1(C(=O)NCC(F)(F)F)c2ccccc2C(=O)N(Cc2cc(F)cc(C(F)(F)F)c2)[C@H]1c1ccc(CO)cc1
value.type: composite z-score
measured: -0.198
//
compound: C=CCC(OC(C)=O)[C@@H]1[C@@H](N(Cc2cc3ccccc3o2)C(=O)c2ccc(-c3ccccc3)cc2)c2cc(OCCCO)ccc2N1C(=O)Cc1ccc2ccccc2c1 (stereo partly drawn)
value.type: composite z-score
measured: -0.0716
//
compound: O=C1O[C@H](c2ccccc2)[C@H](c2ccccc2)N2[C@H]1[C@@H](C(=O)Nc1nc3ccccc3s1)[C@]1(C(=O)Nc3ccc(C#CC4=CCCCC4)cc31)[C@H]2c1ccc(OCCO)cc1
value.type: composite z-score
measured: 0.225
//
compound: C=C(COC)/C(=C/C[C@H](OC(C)=O)c1ccccc1OCCO)c1cnc2ccccc2c1
value.type: composite z-score
measured: -0.0044
//
compound: C=C(C(=O)CC[C@@H](OC(=O)c1cccnc1)c1ccc(OCCO)cc1)C(C)C
value.type: composite z-score
measured: 0.123
//
compound: COc1ccc([Si](C)(C)[C@H]2[C@H](CC(=O)N3CCC[C@H]3CO)O[C@@]3(C(=O)N(c4ccccc4)c4ccccc43)[C@@H]2C)cc1
value.type: composite z-score
measured: -0.191

* * *

molecular target: Luciferin 4-monooxygenase (Photinus pyralis) (UniProt P08659); assay: inhibition of purified Photinus pyralis luciferase – biochemical, luminescence, purified enzyme, 2006 set, primary screen (AID 1141); settings: purified firefly luciferase, SteadyGlo luminescence, 30 min, called active from +8 up or from −8 down;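 further: cell-free assay with purified firefly luciferase at 100 ng per well in PBS; test concentration not given here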
Sequence (P08659 whole entry, looked up): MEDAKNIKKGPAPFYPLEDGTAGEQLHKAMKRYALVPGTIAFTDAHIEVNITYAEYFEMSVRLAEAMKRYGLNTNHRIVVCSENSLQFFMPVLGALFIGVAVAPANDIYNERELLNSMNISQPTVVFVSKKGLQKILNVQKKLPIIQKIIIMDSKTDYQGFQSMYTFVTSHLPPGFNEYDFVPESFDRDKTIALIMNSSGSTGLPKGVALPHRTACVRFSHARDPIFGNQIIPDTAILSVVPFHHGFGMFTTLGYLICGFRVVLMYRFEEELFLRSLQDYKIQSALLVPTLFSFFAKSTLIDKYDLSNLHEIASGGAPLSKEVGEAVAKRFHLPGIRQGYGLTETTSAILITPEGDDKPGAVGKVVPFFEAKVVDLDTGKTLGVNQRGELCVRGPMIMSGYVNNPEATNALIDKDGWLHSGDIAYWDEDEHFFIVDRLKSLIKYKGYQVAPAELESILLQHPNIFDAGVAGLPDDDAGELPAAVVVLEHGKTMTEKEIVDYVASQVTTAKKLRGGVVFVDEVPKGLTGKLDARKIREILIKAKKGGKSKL
Activity calls are given as the source filed them.
Possible outcomes: 1 = active, 0 = inactive

compound: COC(=O)c1nc2oc1CC[C@@H](CO)NC(=O)N(C)Cc1cn(nn1)C[C@H](Cc1ccccc1)NC2=O
answer.label: 0

compound: C=C(CCCC)C(=O)CC[C@@H](OC(=O)c1ccccc1-c1ccccc1C(=O)O)c1ccc(CO)o1
answer.label: 0

compound: CO[C@H]1O[C@H](CO)[C@@H](OC(=O)Nc2cccc(F)c2)[C@H](OC(=O)Nc2ccccc2-c2ccccc2)[C@@H]1OC(=O)Nc1ccccc1-c1ccccc1
answer.label: 0

compound: O=P(NCC1(CC2(c3ccccc3)CO2)CC1)(c1ccccc1)c1ccccc1 (centres undefined)
answer.label: 0

compound: [N-]=[N+]=NCc1ccccc1[C@@H]1OC(c2ccc(OCCCO)cc2)=N[C@]1(Cc1ccccc1N=[N+]=[N-])C(N)=O
answer.label: 0

compound: [N-]=[N+]=Nc1ccccc1[C@H]1OC(c2ccc(OCCCO)cc2)=N[C@@]1(CCS(=O)(=O)c1ccccc1)C(=O)N1CCOCC1
answer.label: 1

compound: COCCOC(=O)N1C(=O)[C@@]2(c3cc(C#CCCO)ccc31)[C@H](C(=O)NC[C@H](O)c1ccccc1)[C@H]1C(=O)O[C@H](c3ccccc3)[C@H](c3ccccc3)N1[C@@H]2c1ccc(OCCO)cc1
answer.label: 0

compound: COc1ccc([Si](C)(C)[C@@H]2[C@@H](CCn3cc([C@H](O)c4ccccc4)nn3)O[C@]3(C(=O)N(C)c4ccccc43)[C@H]2C)cc1
answer.label: 0

compound: CC[C@@H]1C=C(C(=O)O)[C@H](c2ccc(C(C)C)cc2)N1S(=O)(=O)c1ccc(C)cc1
answer.label: 0

* * *

assay: viability profiling in RPMI8226 myeloma cells – cell-based, resazurin fluorescence, basal, 24 h, PK04 Diversity Set, profiling panel (AID 1180); details: higher = more signal;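 further: RPMI8826 multiple myeloma cell line at 5000 cells per well; test concentration not given here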
Entries and their measured z-score follow.

molecule: O=C(CS)NCCCCCCNC(=O)[C@H]1C[C@H]2C(=O)N3CCC[C@H]3C(=O)N2[C@H]1c1ccc(O)cc1
z-score: -0.563

molecule: C=C(C(=O)CC[C@@H](OC(C)=O)c1ccc(OCCO)cc1)C(C)C
z-score: -0.271

molecule: COc1ccc([Si](C)(C)[C@@H]2[C@@H](CCO)O[C@]3(C(=O)N(Cc4ccccc4)c4ccc(N(C=O)c5ccccc5)cc43)[C@H]2C)cc1
z-score: -1.6

molecule: C[N+](C)(C)CCCC[C@@H]1NC(=O)[C@@H]2C[C@H](C(=O)NCCCCCCNC(=O)CS)[C@H](c3cccc(OCCO)c3)N2C1=O
z-score: 0.24

molecule: CC(=O)n1cc(C(O)C2C=CC3C(=O)N(c4ccccc4)C(=O)C3N2Nc2ccc(C#N)cc2)c2ccccc21 (configuration not stated)
z-score: -0.189

molecule: C=CCN1C(=O)[C@]2(Cc3ccccc31)N=C(c1ccc(OCCCO)cc1)O[C@@H]2c1ccccc1
z-score: -1.33

molecule: O=C1OCCC=C[C@H]2OC34C=CCN(CCN5CCOCC5)C(=O)[C@H]3N(CCO)C(=O)[C@@H]4C12 (some centres not stated)
z-score: -0.6

molecule: Cc1ccc(N2C(=O)c3ccccc3[C@](C)(C(=O)NCCN3CCOCC3)[C@@H]2c2ccc(CO)cc2)nc1
z-score: 0.274

molecule: CC(C)CNC(=O)[C@@]1(C)c2ccccc2C(=O)N(C(C)C)[C@H]1c1ccc(CO)cc1
z-score: -0.434

molecule: CC1CC/C=C\[C@H]2OC34C=CCN(CCN5CCOCC5)C(=O)[C@H]3N(CCCCCO)C(=O)[C@@H]4C2C(=O)O1 (some centres not stated)
z-score: -0.977

molecule: COc1ccc([Si](C)(C)[C@@H]2[C@@H](CCn3cc([C@H](O)c4ccccc4)nn3)O[C@]3(C(=O)N(C)c4ccccc43)[C@H]2C)cc1
z-score: -1.81

molecule: COc1ccccc1CN1C(=O)c2ccccc2[C@](Cc2ccccc2I)(C(=O)NCc2ccccc2)[C@@H]1c1ccc(CO)cc1
z-score: -1.12

molecule: O=C1O[C@H](c2ccccc2)[C@H](c2ccccc2)N2[C@H]1[C@@H](C(=O)NC[C@H](O)c1ccccc1)[C@]1(C(=O)Nc3ccc(C#CC4(O)CCCCCC4)cc31)[C@H]2c1ccccc1OCCO
z-score: -6.96

molecule: COC(=O)[C@@]1(Cc2ccc(OC)cc2)[C@H]2c3cc(C(=O)N4CCCC4)n(CCN4CCOCC4)c3C[C@H]2CN1C(=O)c1ccccc1
z-score: 0.639

molecule: Cc1ccccc1/C=C/C=O
z-score: 1.36

molecule: O=C1O[C@@H](c2ccccc2)[C@@H](c2ccccc2)N2[C@@H](c3ccc(O)cc3)[C@]3(C(=O)Nc4ccccc43)[C@@H](C(=O)NC[C@H](O)c3ccccc3)[C@H]12
z-score: -0.273

molecule: COc1ccc([Si](C)(C)[C@@H]2[C@@H](CC(=O)N3Cc4ccccc4C[C@H]3CO)O[C@]3(C(=O)N(Cc4cccc(N5C(=O)COc6ccccc65)c4)c4ccccc43)[C@H]2C)cc1
z-score: -0.748
